Give melting point for every item shown.

Prompt: Report melting point, nothing else, for this compound: COC(=O)c1ccc(CBr)c(OCC(=O)c2ccc(OC)c(C34CC5CC(CC(C5)C3)C4)c2)c1
Completion: 165 °C

Prompt: Report melting point, nothing else, for this compound: CCOC(=O)c1cn(-c2cc(N)c(F)cc2F)c2cc(F)c(F)cc2c1=O
Completion: 198 to 205 °C

Prompt: Report melting point, nothing else, for this compound: O=C(CN1C(=O)c2ccccc2C1=O)Nc1cccc(C(F)(F)F)c1
Completion: 235 °C

Prompt: Report melting point, nothing else, for this compound: CC(=O)Nc1ccc(S(F)(F)(F)(F)F)cc1
Completion: 131 to 132 °C

Prompt: Report melting point, nothing else, for this compound: OCC(CO)(c1ccccc1)c1ccccc1
Completion: 102 to 104 °C

Prompt: Report melting point, nothing else, for this compound: COc1ccc(COc2ccc(C(=O)C3=C(O)C(=O)N(c4ccc(C)nn4)C3c3ccc(OC(F)(F)F)cc3)cc2)cc1 (stereo unspecified)
Completion: 206 to 209 °C

Prompt: Report melting point, nothing else, for this compound: CC(C)(C)COc1ccc(NC(=O)c2cc3ccccc3n2CC(=O)O)cc1C#N
Completion: 194 to 195 °C

Prompt: Report melting point, nothing else, for this compound: CC(C)n1c(CO)c(-c2ccc(F)cc2)c(-c2ccccc2)c1C(=O)NCCc1cccnc1
Completion: 167 to 169 °C

Prompt: Report melting point, nothing else, for this compound: CC(C)(C)OC(=O)N1CCC[C@@H](O)[C@H](N)C1
Completion: 64 to 67 °C

Prompt: Report melting point, nothing else, for this compound: Cc1nc[nH]c1CSCCCNC(=N)N
Completion: 156 to 158 °C

Prompt: Report melting point, nothing else, for this compound: Cc1cc(F)ccc1-c1cc(-c2ccccc2)nc(C(C)C)c1C=O
Completion: 110 to 112 °C

Prompt: Report melting point, nothing else, for this compound: COc1cc(COc2nn(C)cc2C=O)ccc1OCc1nc(-c2ccco2)oc1C
Completion: 155 to 156 °C

Prompt: Report melting point, nothing else, for this compound: Cc1nc2c(C(F)(F)F)cccc2c(O)c1C(=O)Nc1nccs1
Completion: 267 °C

Prompt: Report melting point, nothing else, for this compound: FC(F)(F)c1cc(Cl)c(Oc2ccc3ccc(S)cc3c2)c(Cl)c1
Completion: 98 °C

Prompt: Report melting point, nothing else, for this compound: O=C1CCCN1c1cccc(-n2cnc3cc(Br)cnc32)c1
Completion: 194 to 195 °C

Prompt: Report melting point, nothing else, for this compound: CCOc1ccc(NC=C(C(=O)Nc2ccccc2)c2cc(C)no2)cc1
Completion: 114 to 115 °C

Prompt: Report melting point, nothing else, for this compound: Cc1ccc(C2(n3ccnc3)c3ccccc3C(=O)c3ccccc32)cc1
Completion: 200 to 204 °C

Prompt: Report melting point, nothing else, for this compound: O=C1Cc2cc(C3=NNC(=O)SC3)ccc2N1
Completion: > 310 °C

Prompt: Report melting point, nothing else, for this compound: CCOC(=O)Cn1c(C(=O)OCC)c(O)c(O)c1C(=O)OCC
Completion: 121 to 122 °C

Prompt: Report melting point, nothing else, for this compound: c1ccc(CNc2nccc3ccccc23)cc1
Completion: 101 to 102 °C

Prompt: Report melting point, nothing else, for this compound: O=C1c2c(O)ccc(O)c2C(=O)c2c(F)ccc(F)c21
Completion: 301 to 304 °C
